- Tested on: Salmonella typhimurium TA1535
- assay_procedure: Ames test (reverse mutation test), TA1535
- Type: cell-based
- condition_context: S9 Mix −, 556 μg/plate
Please go through the items and note down their Number of revertant colonies TA1535.
Could you keep your reply to the number by itself?

// fetch Salmonella typhimurium TA1535 Number of revertant colonies TA1535 for Nc1cc(-c2cccc(OC(F)(F)F)c2)n(-c2cccc(F)c2)n1 [Metabolite G]
0

// fetch Salmonella typhimurium TA1535 Number of revertant colonies TA1535 for Nc1cc(-c2cccc(OCC(F)(F)F)c2)n(-c2ccc(F)cc2)n1 [Metabolite E]
0

// fetch Salmonella typhimurium TA1535 Number of revertant colonies TA1535 for Cc1cccc(-n2nc(N)cc2-c2cccc(OC(F)(F)F)c2)c1 [Metabolite H]
6

// fetch Salmonella typhimurium TA1535 Number of revertant colonies TA1535 for CC(C)(C)Oc1cccc(-c2cc(N)nn2-c2ccccc2)c1 [Metabolite C]
0

// fetch Salmonella typhimurium TA1535 Number of revertant colonies TA1535 for CC(C)(OCc1cc(F)cc(-c2cc(N)nn2-c2ccc(F)cc2)c1)C(F)(F)F [Metabolite D]
5

// fetch Salmonella typhimurium TA1535 Number of revertant colonies TA1535 for Cc1ccc(-n2nc(N)cc2-c2cccc(OCC(F)(F)F)c2)cc1 [Metabolite F]
0

----------
Please go through the items and note down their Number of revertant colonies TA1535.
- System: Salmonella typhimurium TA1535
- assay_procedure: Ames test (reverse mutation test), TA1535
- Format: cell-based
- condition_context: S9 Mix +, 2.3 μg/plate
- Description: Ames Test (Reverse Mutation Test) Two plates per treatment were used.
Could you keep your reply to the number by itself?

// fetch Salmonella typhimurium TA1535 Number of revertant colonies TA1535 for Cc1ccc(-n2nc(N)cc2-c2cccc(OCC(F)(F)F)c2)cc1 [Metabolite F]
22

// fetch Salmonella typhimurium TA1535 Number of revertant colonies TA1535 for CC(C)(OCc1cc(F)cc(-c2cc(N)nn2-c2ccc(F)cc2)c1)C(F)(F)F [Metabolite D]
10

// fetch Salmonella typhimurium TA1535 Number of revertant colonies TA1535 for Nc1cc(-c2cccc(OC(F)(F)F)c2)n(-c2cccc(F)c2)n1 [Metabolite G]
12

// fetch Salmonella typhimurium TA1535 Number of revertant colonies TA1535 for Nc1cc(-c2cccc(OCC(F)(F)F)c2)n(-c2ccc(F)cc2)n1 [Metabolite E]
18

// fetch Salmonella typhimurium TA1535 Number of revertant colonies TA1535 for Cc1cccc(-n2nc(N)cc2-c2cccc(OC(F)(F)F)c2)c1 [Metabolite H]
11

----------
- Tested on: Salmonella typhimurium TA1535
- assay_procedure: Ames test (reverse mutation test), TA1535
- Assay type: cell-based
- condition_context: S9 Mix +, 62 μg/plate
endpoint_label: Number of revertant colonies TA1535

// fetch Salmonella typhimurium TA1535 Number of revertant colonies TA1535 for Cc1cccc(-n2nc(N)cc2-c2cccc(OC(F)(F)F)c2)c1 [Metabolite H]
15

// fetch Salmonella typhimurium TA1535 Number of revertant colonies TA1535 for Nc1cc(-c2cccc(OC(F)(F)F)c2)n(-c2cccc(F)c2)n1 [Metabolite G]
8

// fetch Salmonella typhimurium TA1535 Number of revertant colonies TA1535 for Nc1cc(-c2cccc(OCC(F)(F)F)c2)n(-c2ccc(F)cc2)n1 [Metabolite E]
21

// fetch Salmonella typhimurium TA1535 Number of revertant colonies TA1535 for Cc1ccc(-n2nc(N)cc2-c2cccc(OCC(F)(F)F)c2)cc1 [Metabolite F]
23

// fetch Salmonella typhimurium TA1535 Number of revertant colonies TA1535 for CC(C)(OCc1cc(F)cc(-c2cc(N)nn2-c2ccc(F)cc2)c1)C(F)(F)F [Metabolite D]
11
